TEST_SUMMARY: in vitro
SETUP_CONDITIONS: human, hepg2 cells
Hi! Just check whether CC50 at 48 h is below 40 µM. Below gives T, equal or above gives F.

Regarding "Cc1nn2c(c1-c1ccccc1[S+](C)(=O)[O-])N(Cc1ccc(C(=O)O)s1)CCC2" , kindly confirm whether its CC50 at 48 h is beneath 40 µM.
F

Regarding "Cc1nc2c(=O)n(C)c(=O)nc-2n(C)n1" , kindly confirm whether its CC50 at 48 h is beneath 40 µM.
T

Regarding "CN1CCN(c2ccc3ncc(Nc4ccccc4-c4ccccc4)n3n2)CC1" , kindly confirm whether its CC50 at 48 h is beneath 40 µM.
F

Regarding "CN1CCN(c2ccc(Nc3ccnc4cc(Cl)ccc34)cc2)CC1" , kindly confirm whether its CC50 at 48 h is beneath 40 µM.
T

Regarding "Cc1cc(OCCn2cc(C(=O)c3ccco3)c3ccccc32)ccc1Cl" , kindly confirm whether its CC50 at 48 h is beneath 40 µM.
T

Regarding O=C(O)c1ccccc1.OC(CNCC1CCCO1)Cn1c2ccc(Cl)cc2c2cc(Cl)ccc21 (centres unmarked) , kindly confirm whether its CC50 at 48 h is beneath 40 µM.
T

Regarding "COc1cnc(-c2ccccn2)nc1Oc1ccc(C(C)(C)C)cc1" , kindly confirm whether its CC50 at 48 h is beneath 40 µM.
T

Regarding "CCN(CC)CCCNC(=O)c1ccc2c(c1)sc1nc(-c3ccc(C)cc3)cn12" , kindly confirm whether its CC50 at 48 h is beneath 40 µM.
F

====

Provide the recorded viability at 48 h, 3 µM for the entries that follow.
TEST_SUMMARY: in vitro
SETUP_CONDITIONS: human, HepG2-A16-CD81EGFP cells, uninfected
Provide only the numeric value, understood in %.

Input COc1cc(C(=O)Nc2ccc3nc(N4CCN(C)CC4)cc(C)c3c2)cc(OC)c1OC [MLS001197839-01] . Output viability at 48 h, 3 µM: 103

Input Fc1ccc(-c2csc3ncnc(Cl)c23)cc1 [MLS000590541-01] . Output viability at 48 h, 3 µM: 101

Input Oc1ccccc1-c1cc(-c2cccnc2)c2cncn2c1 [NCGC00412170-01] . Output viability at 48 h, 3 µM: 101

Input COc1ccc(Nc2cc(O)c3ncccc3c2)cc1 [NCGC00183797-01] . Output viability at 48 h, 3 µM: 73

Input COc1ccc(C)cc1N(C(=O)COc1cccc(F)c1)c1nc2ccccc2s1 [MLS000394477-01] . Output viability at 48 h, 3 µM: 106

Input CCc1cc2c(Sc3nc4ccccc4s3)ncnc2s1 [MLS000544746-01] . Output viability at 48 h, 3 µM: 101

Input CCNc1nc(OC)nc(Oc2ccc(=O)n(-c3ccccc3)n2)n1 [MLS000034902-01] . Output viability at 48 h, 3 µM: 101

Input c1ccc2c(NCCc3c[nH]c4ccccc34)c3ccccc3nc2c1 [MLS001195935-01] . Output viability at 48 h, 3 µM: 83

Input COc1ccc(CCn2c(=N)c(C(=O)NC3CCCCC3)cc3c(=O)n4ccccc4nc32)cc1 [MLS001146200-01] . Output viability at 48 h, 3 µM: 98

Input O=C(CCc1ccccc1)NC(c1cccs1)c1cc(Cl)c2cccnc2c1O (centres unmarked) [MLS000703748-01] . Output viability at 48 h, 3 µM: 51

Input Cc1ccc([S+](=O)([O-])N2CCC(OC3CCN(Cc4ccccc4)CC3)CC2)c(C)c1 [NCGC00444944-01] . Output viability at 48 h, 3 µM: 107

Input O=C(Nc1ccc2c(N3CCCC3)ncnc2c1)c1cccc(F)c1 [NCGC00425501-01] . Output viability at 48 h, 3 µM: 94.4

Input CCCN(CCC)C(=O)Cn1ccc(=N)c2ccccc21 [MLS000047676-01] . Output viability at 48 h, 3 µM: 87

Input CCOc1ccccc1C1c2[nH]c3ccccc3c2C[C@H]2C(=O)N(C3CCN(Cc4ccccc4)CC3)CC(=O)N12 (some centres unmarked) [MLS001215140-01] . Output viability at 48 h, 3 µM: 101

Input CCN1CCN(Cc2c(O)ccc3c(=O)c(Oc4ccccc4C(C)C)c(C(F)(F)F)oc23)CC1 [NCGC00100599-01] . Output viability at 48 h, 3 µM: 99.2

Input CC1CCCN(Cc2c(O)ccc3c(=O)c(-c4ccccc4Cl)c(C(F)(F)F)oc23)C1 (centres unmarked) [NCGC00100585-01] . Output viability at 48 h, 3 µM: 112

Input CCOC(=O)N1CCc2c(sc3nc4n(c(=O)c23)N=C(c2ccc(OC)cc2)CS4)C1 [MLS000859689-01] . Output viability at 48 h, 3 µM: 96

Input Cc1nc(N2CCC(C)CC2)c2c(C)c(C(=O)Nc3ccc(C(F)(F)F)cc3)sc2n1 [MLS000682669-01] . Output viability at 48 h, 3 µM: 99

Input NNC(=O)CN1C(c2cccc(Cl)c2)=Nc2ccc(Br)cc2C1c1ccccc1 (centres unmarked) [MLS000558682-01] . Output viability at 48 h, 3 µM: 89

Input Oc1cc(NCc2ccccc2)cc2cccnc12 [NCGC00183793-01] . Output viability at 48 h, 3 µM: 52

Input COc1cc2c3nnc(-c4ccc(F)cc4)c-3cn(Cc3ccccc3F)c2cc1OC [MLS000419426-01] . Output viability at 48 h, 3 µM: 100

Input COc1ccc(Nc2cnc3ccc(-c4ccc(OC)c(OC)c4)nn23)cc1 [NCGC00412624-01] . Output viability at 48 h, 3 µM: 109

Input Cn1c(/N=N/c2ccccc2)nc2ccccc21 [MLS000700530-01] . Output viability at 48 h, 3 µM: 70

Input CCOC(=O)c1c(C)[nH]c(C(=O)CSc2nnc(C3CC3)n2N)c1C [MLS000536141-01] . Output viability at 48 h, 3 µM: 89

Input c1ccc(Nc2nc(NCc3ccco3)c3ccccc3n2)cc1 [MLS000767881-01] . Output viability at 48 h, 3 µM: 80

Input CCOc1ccc(Cl)cc1CN(C)CC1(O)CCCNC1 (centres unmarked) [NCGC00439019-01] . Output viability at 48 h, 3 µM: 96.9

Input Cc1ccc(CN2COc3cc(C)c4c(oc(=O)c5ccccc54)c3C2)cc1 [NCGC00116336-01] . Output viability at 48 h, 3 µM: 105

Input CCc1cccc2sc(N3CCN(C(=O)c4ccc([N+](=O)[O-])o4)CC3)nc12 [MLS001234237-01] . Output viability at 48 h, 3 µM: 115

Input CCOC(=O)c1c(CNc2ccncc2)n(C)c2cc(Br)c(O)cc12 [MLS000714612-01] . Output viability at 48 h, 3 µM: 86

Input N=c1c2ccccc2nnn1-c1ccc(C(F)(F)F)cc1 [MLS000707013-01] . Output viability at 48 h, 3 µM: 101

Input Cc1ccc(C(=O)Nc2nc(-c3ccccn3)cs2)cc1S(=O)(=O)N1CCOCC1 [MLS002157637-01] . Output viability at 48 h, 3 µM: 55

Input CC(C)COc1ccc(C(=O)N/C(=C\c2cccc([N+](=O)[O-])c2)C(=O)OC(C)C)cc1 [MLS000574251-01] . Output viability at 48 h, 3 µM: 102

Input CC1=C(C(=O)Nc2ccc(C)cc2C)C(c2ccc(Br)cc2)n2ncc(C(=O)Nc3cccc(C)c3)c2N1 (centres unmarked) [NCGC00126300-01] . Output viability at 48 h, 3 µM: 94.6

Input CCCCn1c2c(c(=N)c3c1CCC3)CCC2 [MLS000080126-01] . Output viability at 48 h, 3 µM: 80

Input Cc1ccc(NN=C2C=CC(=O)c3ncccc32)cc1 [MLS000585898-01] . Output viability at 48 h, 3 µM: 88

====

Provide the recorded viability at 48 h, 3 µM for the entries that follow.
TEST_SUMMARY: in vitro
SETUP_CONDITIONS: human, HepG2-A16-CD81EGFP cells, uninfected
A complete answer gives the number followed by the unit.

Input "O=C(NCCCNc1ccnc2cc(Cl)ccc12)c1ccccc1F" . Output viability at 48 h, 3 µM: 88%

Input "Nc1nonc1-n1nnc(C(=O)N/N=C/c2cccs2)c1-c1ccc2c(c1)OCO2" . Output viability at 48 h, 3 µM: 91%

Input "Cc1ccc(C)c(Cn2c(=O)n(CCCCC(=O)NCc3ccc4c(c3)OCO4)c(=O)c3ccccc32)c1" . Output viability at 48 h, 3 µM: 93.3%

Input "Cc1ccc(C)c(NC(=O)CN(C)C(=O)c2ccc(-c3cccc(C(F)(F)F)c3)o2)c1" . Output viability at 48 h, 3 µM: 102%
